Source: patent US9168247B2

test system: U373 cells; assay: Cellular imaging (videomicroscopy) of cultured U373 cells: antiproliferative class and global growth ratio; assay type: cell-based, human; design: key: class I: actually cytostatic for 3 days (<10% of cell death at the 3rd day); class II: cyctostatic but becomes cytotoxic with <10% cell death on the 2nd day, and >20% of cell death on the 3rd day; class III: cytostatic but rapidly becomes cytotoxic with <10% cell death on the 1st day, >20% of cell death on the 2nd day and >50% of cell death on the 3rd day; class IV: cytotoxic (>50% of cell death on the first day); conditions: Table 4
readout_type: anti-proliferative class-GGR

{"structure_as_smiles": "Cc1nccc2c3ccc(OCc4ccccc4)cc3n(Cc3ccccc3)c12", "reported_value": "(II)"}

* * *

test system: human cancer cell lines (U373, T98G, Hs683, OE21, OE33); assay: MTT test, mean over the cancer cell lines; format: cell-based; details: Homo sapiens; mean over the cancer cell lines, MTT test; read-out: IC50 Mean ± SEM
readout_type: IC50 (nM)
Write it as a number; the unit nM goes unstated.

{"compound": "Cc1c2c(cc[n+]1Cc1ccccc1)c1ccc(OCc3ccccc3)cc1n2Cc1ccccc1.[Br-]", "readout_type": "IC50", "reported_value": 700}

[Q] # IC50 lookup, item Cc1nccc2c3ccc(O)cc3n(Cc3ccccc3)c12 [CV27, 1-methyl-7-hydroxy-9-benzyl-β-carboline]
[A] 62000

[Q] Another compound: CCCn1c2cc(OCc3ccccc3)ccc2c2cc[n+](Cc3ccccc3F)c(C)c21.[Br-]
[A] 700

* * *

Items are presented alongside their recorded IC50.
Tested on: human cancer cell lines (U373, T98G, Hs683, OE21, OE33)
Assay: MTT test, mean over the cancer cell lines
Format: cell-based
Conditions: Homo sapiens; mean over the cancer cell lines, MTT test; read-out: IC50 Mean ± SEM
Protocol: MTT tests were performed in order to rapidly, i.e., within 5 days, measure the effect of the present compounds on the overall cell growth. The test measured the number of metabolically active living cells that were able to transform the yellow product 3-(4,5-dimethylthiazol-2-yl)-2,5-diphenyl tetrazolium bromide (herein referred as MTT) into the blue product formazan dye by mitochondrial reduction. […]
Write it as a number; the unit nM goes unstated.

These recorded examples may help you get a feel for the data.
{"compound": "Cc1nccc2c3ccc(OCC4CCCCC4)cc3n(CC3CCCCC3)c12 [CV12]", "target_system": "human cancer cell lines (U373, T98G, Hs683, OE21, OE33)", "readout_type": "IC50", "reported_value": 25000}
{"compound": "Cc1c2c(cc[n+]1Cc1ccccc1)c1ccc(OCc3ccc(F)cc3)cc1n2Cc1ccc(F)cc1.[Br-] [CV23]", "target_system": "human cancer cell lines (U373, T98G, Hs683, OE21, OE33)", "readout_type": "IC50", "reported_value": 800}

[Q] # IC50 lookup, item CCCCCC[n+]1ccc2c3ccc(OCc4ccccc4)cc3n(Cc3ccccc3)c2c1C [CV53]
[A] 1500

[Q] Another compound: Cc1c2c(cc[n+]1CCc1ccccc1)c1ccc(OCc3ccccc3)cc1n2Cc1ccccc1 [PL4]
[A] 2300

[Q] Another compound: Cc1nccc2c3ccc(OCc4ccccc4)cc3n(Cc3ccccc3)c12 [CV9/JR84]
[A] 31000

* * *

System: Hs683 glioma cells
Experiment: MTT test, overall cell growth, Hs683
Type: cell-based, human
Conditions: Homo sapiens, Hs 683, 72 hours of incubation
Procedure: MTT tests were performed in order to rapidly, i.e., within 5 days, measure the effect of the present compounds on the overall cell growth. The test measured the number of metabolically active living cells that were able to transform the yellow product 3-(4,5-dimethylthiazol-2-yl)-2,5-diphenyl tetrazolium bromide (herein referred as MTT) into the blue product formazan dye by mitochondrial reduction. […]
pIC50: −log10 of the molar value.
Class Yes: pIC50 at least 6. Class No: pIC50 below 6.

{"molecule": "CCCn1c2cc(OCc3ccccc3)ccc2c2cc[n+](Cc3ccccc3)c(C)c21.[Br-] [CV34]", "cat": "No"}
{"molecule": "Cc1c2c(cc[n+]1Cc1ccc(F)cc1)c1ccc(OCc3ccccc3)cc1n2Cc1ccccc1.[Br-] [CV17]", "cat": "No"}
{"molecule": "Cc1c2c(cc[n+]1CCc1ccccc1)c1ccc(OCc3ccccc3)cc1n2Cc1ccccc1 [PL4]", "cat": "No"}

Here is another molecule to look at.
[Q] Identify whether the reported pIC50 of the following molecule is 6 or greater: Cc1c2c(cc[n+]1Cc1ccc(F)cc1)c1ccc(OCc3ccc(F)cc3)cc1n2Cc1ccc(F)cc1.[Br-] [CV29]
[A] No

* * *

test system: human cancer cell lines (U373, T98G, Hs683, OE21, OE33); assay: MTT test, mean over the cancer cell lines; type: cell-based; conditions: Homo sapiens; mean over the cancer cell lines, MTT test; read-out: IC50 Mean ± SEM
Items are presented alongside their recorded pIC50.
For clarity, pIC50 is expressed as the negative log10 of concentration in mol/L.

{"compound": "Cc1c2c(cc[n+]1Cc1ccccc1F)c1ccc(OCC3CCCCC3)cc1n2CC1CCCCC1.[Br-] [CV26]", "reported_value": 6.30}
{"compound": "COc1ccc2c(c1)[nH]c1c(C)nccc12 [harmine, reference compound]", "reported_value": 4.55}
{"compound": "CCCn1c2cc(OCc3ccccc3)ccc2c2cc[n+](Cc3ccc(F)cc3)c(C)c21.[Br-] [CV36]", "reported_value": 5.60}

[Q] # pIC50 lookup, item Cc1c2c(cc[n+]1Cc1ccccc1F)c1ccc(OCc3cccc(F)c3)cc1n2Cc1cccc(F)c1.[Br-] [CV19]
[A] 5.80

* * *

system: OE33 oesophageal cancer cells; test: MTT test, overall cell growth, OE33; type: cell-based, human; settings: 72 hours of incubation
pIC50: −log10 of the molar value.
Class label 1: pIC50 at least 5. Class label 0: pIC50 below 5.

{"structure_as_smiles": "Cc1c2[nH]c3cc(OCc4ccccc4)ccc3c2cc[n+]1Cc1ccccc1", "cat": "label 1"}
{"structure_as_smiles": "Cc1nccc2c1[nH]c1cc(OC(=O)c3ccccc3)ccc12", "cat": "label 0"}

[Q] Identify whether the reported pIC50 of the following compound is 5 or greater: Cc1nccc2c1[nH]c1cc(OCc3ccccn3)ccc12
[A] label 0

[Q] Another compound: Cc1c2c(cc[n+]1Cc1ccccc1F)c1ccc(OCc3ccc(F)cc3)cc1n2Cc1ccc(F)cc1.[Br-]
[A] label 1

[Q] Another compound: Cc1nccc2c1[nH]c1cc(OCCCC(F)(F)F)ccc12
[A] label 0

[Q] Another compound: COCCOc1ccc2c(c1)[nH]c1c(C)nccc12
[A] label 0

[Q] Another compound: Cc1nccc2c1[nH]c1cc(OCc3cccnc3)ccc12
[A] label 0

[Q] Another compound: Cc1nccc2c1[nH]c1cc(OCc3ccncc3)ccc12
[A] label 1

[Q] Another compound: Cc1nccc2c1[nH]c1cc(OCCO)ccc12
[A] label 0

[Q] Another compound: Cc1c2c(cc[n+]1Cc1ccccc1)c1ccc(OCc3cccc(F)c3)cc1n2Cc1cccc(F)c1.[Br-]
[A] label 1

* * *

system: human cancer cell lines (U373, T98G, Hs683, OE21, OE33); assay: MTT test, mean over the cancer cell lines; assay type: cell-based; conditions: Homo sapiens; mean over the cancer cell lines, MTT test; read-out: IC50 Mean ± SEM
Items are presented alongside their recorded pIC50.
For clarity, pIC50 is expressed as the negative log10 of concentration in mol/L.

These recorded examples may help you get a feel for the data.
{"structure_as_smiles": "Cc1c2c(cc[n+]1Cc1ccc(F)cc1)c1ccc(OCc3ccc(F)cc3)cc1n2Cc1ccc(F)cc1.[Br-]", "pIC50": 5.15}
{"structure_as_smiles": "CCCn1c2cc(OCc3ccccc3)ccc2c2cc[n+](Cc3ccccc3)c(C)c21.[Br-]", "pIC50": 5.96}
{"structure_as_smiles": "Cc1nccc2c3ccc(OCc4ccc(F)cc4)cc3n(Cc3ccc(F)cc3)c12", "pIC50": 4.70}

Next:
[Q] # pIC50 lookup, item Cc1nccc2c1[nH]c1cc(OCc3ccccc3)ccc12
[A] 4.85

* * *

system: OE33 oesophageal cancer cells; assay: MTT test, overall cell growth, OE33; format: cell-based, human; settings: 72 hours of incubation
readout_type: IC50 (µM)
Write it as a number; the unit µM goes unstated.

These recorded examples may help you get a feel for the data.
{"structure_as_smiles": "Cc1nccc2c1[nH]c1cc(OCc3cccc4ccccc34)ccc12", "unit_info": "µM", "reported_value": 8.2}
{"structure_as_smiles": "C=CCOc1ccc2c(c1)[nH]c1c(C)nccc12", "unit_info": "µM", "reported_value": 29.8}

[Q] # IC50 lookup, item Cc1nccc2c1[nH]c1cc(OCC(C)C)ccc12
[A] 25

[Q] Another compound: Cc1nccc2c1[nH]c1cc(OCC3CCCCC3)ccc12
[A] 8.1

[Q] Another compound: Cc1nccc2c1[nH]c1cc(OCCc3ccccc3)ccc12
[A] 7.9
